- Tested on: primary rat mixed cortical cells
- assay.details: In vitro myelination assay (MBP positive myelin strands, fold myelin pixels above background)
- Format: cell-based
- condition.parameters: Rattus norvegicus, 10.0 μM compound, relative to baseline of no added compound; read-out: Fold myelin pixels above background, 10.0 μM
The entries below are paired with their reported fold induction at 10 µM.

Sample answers from the record:
{"molecule": "Cc1cc(Nc2ncn(-c3ccncn3)n2)cc(N2CCN(C3COC3)CC2)c1", "measured.parameter": "fold induction at 10 µM", "value.measured": "10 to 100"}
{"molecule": "COc1ccc(-n2cnc(Nc3cc(Cl)nc(N4CCOCC4)c3)n2)cc1OC", "measured.parameter": "fold induction at 10 µM", "value.measured": "1 to 10"}

Then this molecule:
Name the reported fold induction at 10 µM value associated with the molecule Cc1cc(Nc2ncn(-c3ccccc3)n2)cc(N2CCNC(CO)C2)c1 (stereo not shown)
100 to 1000

====

- Tested on: primary rat mixed cortical cells
- assay.details: In vitro myelination assay (MBP positive myelin strands, fold myelin pixels above background)
- Type: cell-based
- condition.parameters: Rattus norvegicus, 10.0 μM compound; read-out: Fold myelin pixels above background relative to baseline of no added compound
measured.parameter: fold induction at 10 µM

Sample answers from the record:
{"molecule": "COCCC1CN(c2cc(C)cc(Nc3ncn(-c4cc(F)cc(F)c4)n3)c2)CCO1 (stereo not shown) [Compound 1030]", "fold induction at 10 µM": "1 to 10"}
{"molecule": "CCC1CN(c2cc(C)cc(Nc3ncn(-c4cc(F)cc(F)c4)n3)c2)CCN1CC(C)O (stereo not shown) [Compound 1056]", "fold induction at 10 µM": "≤ 1"}
{"molecule": "Cc1cc(Nc2ncn(-c3cc(F)cc(F)c3)n2)c(C)c(N2CC(N3CCOCC3)C2)c1 [Compound 820]", "fold induction at 10 µM": "10 to 100"}
{"molecule": "Cc1cc(Nc2ncn(-c3ccccn3)n2)c(F)c(N2CCN(C3COC3)CC2)c1 [Compound 908]", "fold induction at 10 µM": "10 to 100"}
{"molecule": "CC(=O)N1CCC(Oc2cc(C)cc(Nc3ncn(-c4cc(F)cc(F)c4)n3)c2)CC1 [Compound 805]", "fold induction at 10 µM": "1 to 10"}

Name the reported fold induction at 10 µM value associated with the molecule Cc1cc(C#CC2CC2)cc(Nc2ncn(-c3cc(F)cc(F)c3)n2)c1 [Compound 798]
1 to 10

Name the reported fold induction at 10 µM value associated with the molecule CCC1CN(CCNc2cc(C)cc(Nc3ncn(-c4cc(F)cc(F)c4)n3)c2)CCO1 (stereo not shown) [Compound 917]
≤ 1

Name the reported fold induction at 10 µM value associated with the molecule Cc1cc(Nc2ncn(-c3cc(F)cc(F)c3)n2)cc(NC2(C(=O)N(C)C)CCC2)c1 [Compound 887]
10 to 100

Name the reported fold induction at 10 µM value associated with the molecule Cc1cc(Nc2ncn(-c3cccnc3)n2)c(F)c(N2CCN(C3COC3)CC2)c1 [Compound 1022]
10 to 100

Name the reported fold induction at 10 µM value associated with the molecule COCC(=O)N1CC(C)(Nc2cc(C)cc(Nc3ncn(-c4cc(F)cc(F)c4)n3)c2)C1 [Compound 1075]
≤ 1

Name the reported fold induction at 10 µM value associated with the molecule Cc1cc(Nc2ncn(-c3cc(F)cc(F)c3)n2)cc(N2CCN(CC3CCCN(C)C3)CC2)c1 (stereo not shown) [Compound 1047]
≤ 1

Name the reported fold induction at 10 µM value associated with the molecule Cc1cc(Nc2ncn(-c3cc(F)cc(F)c3)n2)cc(N2CCN(C)C(CCO)C2)c1 (stereo not shown) [Compound 1026]
1 to 10

Name the reported fold induction at 10 µM value associated with the molecule Cc1cc(Nc2ncn(-c3ccc(F)c(F)c3)n2)cc(OCC2CCOC2)c1 (stereo not shown) [Compound 865]
1 to 10

Name the reported fold induction at 10 µM value associated with the molecule Cc1cc(Nc2ncn(-c3cc(F)cc(F)c3)n2)cc(NC2CCN(CC(F)F)CC2)c1 [Compound 992]
1 to 10

Name the reported fold induction at 10 µM value associated with the molecule [2H]C1(N2CCN(c3cc(C)cc(Nc4ncn(-c5cc(F)cc(F)c5)n4)c3)CC2)COC1 [Compound 1110]
1 to 10

====

The entries below are paired with their reported fold induction at 10 µM.
- Tested on: primary rat mixed cortical cells
- assay.details: In vitro myelination assay (MBP positive myelin strands, fold myelin pixels above background)
- Assay type: cell-based
- condition.parameters: Rattus norvegicus, 10.0 μM compound, relative to baseline of no added compound; read-out: Fold myelin pixels above background, 10.0 μM

{"compound": "CCc1cc(Nc2ncn(-c3cccc(F)c3)n2)cc(N2CC(N3CCOCC3)C2)c1", "value.measured": "10 to 100"}
{"compound": "Cc1cc(Nc2ncn(-c3ccncn3)n2)cc(C2CCCN(C3COC3)C2)c1 (centres unmarked)", "value.measured": "≤ 1"}
{"compound": "Cc1cc(Nc2ncn(-c3ccccc3)n2)cc(N2CCCC2)c1", "value.measured": "1 to 10"}
{"compound": "Fc1cc(F)cc(-n2cnc(Nc3cc(C4CC4)nc(N4CCCC4)c3)n2)c1", "value.measured": "100 to 1000"}
{"compound": "Cc1cc(Nc2ncn(-c3cc(F)cc(F)c3)n2)nc(N2CCN(C3COC3)CC2)c1", "value.measured": "10 to 100"}
{"compound": "CC(C)(O)[C@@H]1CN(c2cc(Nc3ncn(-c4cc(F)cc(F)c4)n3)cc(C(F)(F)F)c2)CCN1", "value.measured": "≤ 1"}
{"compound": "CCc1cc(Nc2ncn(-c3cccc(C(F)(F)F)c3)n2)cc(N2CCN(C3COC3)CC2)c1", "value.measured": "≤ 1"}
{"compound": "Cc1cc(Nc2ncn(-c3cc(F)cc(F)c3)n2)cc(N2CCN(C3COC3)CC2)n1", "value.measured": "100 to 1000"}
{"compound": "Cc1cc(Nc2ncn(-c3ccccc3)n2)cc(N2CCN(C3CCC3)CC2)c1", "value.measured": "1000 to 10000"}
{"compound": "Fc1cc(-n2cnc(Nc3cc(C(F)F)cc(N4CCN(C5COC5)CC4)c3)n2)ccn1", "value.measured": "≤ 1"}

Name the reported fold induction at 10 µM value associated with the compound `Cc1cc(Nc2ncn(-c3ccc(F)cc3)n2)cc(OC2CCN(C3COC3)CC2)c1`
≤ 1

Name the reported fold induction at 10 µM value associated with the compound `Cc1cc(Nc2ncn(-c3cc(F)cc(F)c3)n2)cc(C2CCN(C3CC3)CC2)c1`
10 to 100

Name the reported fold induction at 10 µM value associated with the compound `CC1CCN(c2cc(Nc3ncn(-c4ccccc4)n3)cc(C3CC3)n2)CC1`
1000 to 10000

Name the reported fold induction at 10 µM value associated with the compound `COc1cc(-n2cnc(Nc3cc(C4CC4)cc(N4CCN(C5COC5)CC4)c3)n2)ncn1`
10 to 100

====

- System: primary rat mixed cortical cells
- assay.details: In vitro myelination assay (MBP positive myelin strands, fold myelin pixels above background)
- Assay type: cell-based
- condition.parameters: Rattus norvegicus, 1.0 μM compound, relative to baseline of no added compound; read-out: Fold myelin pixels above background
measured.parameter: fold induction at 1 µM

Sample answers from the record:
{"compound": "Cc1cc(Nc2ncn(-c3cc(F)cc(F)c3)n2)c(F)c(N2CCN(C3COC3)CC2)c1 [Compound 691]", "fold induction at 1 µM": "10 to 100"}
{"compound": "Cc1cc(N2CCN(C3COC3)CC2)cc(Nc2ncn(-c3cc(F)cc(F)c3)n2)c1C [Compound 425]", "fold induction at 1 µM": "1 to 10"}
{"compound": "CN1CCN(c2cc(F)cc(Nc3ncn(-c4ccc(F)cc4F)n3)c2)CC1 [Compound 450]", "fold induction at 1 µM": "≤ 1"}
{"compound": "FC(F)c1cc(Nc2ncn(-c3ccccc3)n2)nc(N2CCN(C3COC3)CC2)c1 [Compound 526]", "fold induction at 1 µM": "100 to 1000"}

Then this compound:
Name the reported fold induction at 1 µM value associated with the compound COC1CN(c2cc(F)cc(-n3cnc(Nc4cc(C5CC5)cc(N5CCN(C6COC6)CC5)c4)n3)c2)C1 [Compound 494]
100 to 1000

====

- Tested on: primary rat mixed cortical cells
- assay.details: In vitro myelination assay (MBP positive myelin strands, fold myelin pixels above background)
- Assay type: cell-based
- condition.parameters: Rattus norvegicus, 1.0 μM compound, relative to baseline of no added compound; read-out: Fold myelin pixels above background
The entries below are paired with their reported fold induction at 1 µM.

Sample answers from the record:
{"compound": "Cc1cc(Nc2ncn(-c3cc(F)cc(F)c3)n2)cc(N2CCN3C(=O)CCC3C2)c1 (stereo not drawn)", "fold induction at 1 µM": "100 to 1000"}
{"compound": "Cc1cc(Nc2ncn(-c3cnccn3)n2)cc(C2(C)CNC(=O)O2)c1 (stereo not drawn)", "fold induction at 1 µM": "10 to 100"}
{"compound": "Cc1cc(Nc2ncn(-c3ccccc3)n2)cc(Nc2ncn(-c3ccccc3)n2)c1", "fold induction at 1 µM": "10 to 100"}
{"compound": "C1=C(c2cc(Nc3ncn(-c4ccccc4)n3)cc(N3CCOCC3)c2)COC1", "fold induction at 1 µM": "100 to 1000"}
{"compound": "Fc1cc(Nc2ncn(-c3ccc(F)c(F)c3)n2)cc(N2CCOCC2)c1", "fold induction at 1 µM": "10 to 100"}

Name the reported fold induction at 1 µM value associated with the compound CC(=O)N1CCC(c2cc(C)cc(Nc3ncn(-c4ccccc4)n3)c2)C1 (stereo not drawn)
1000 to 10000

Name the reported fold induction at 1 µM value associated with the compound `COc1ccc(-n2cnc(Nc3cc(C)cc(N4CCN(C5COC5)CC4)c3)n2)cc1`
10 to 100

Name the reported fold induction at 1 µM value associated with the compound `CCc1cc(Nc2ncn(-c3ccc(C)c(Cl)c3)n2)cc(N2CCN(C3COC3)CC2)c1`
10 to 100

Name the reported fold induction at 1 µM value associated with the compound `Fc1cc(F)cc(-n2cnc(Nc3cc(C(F)F)cc(N4CCN(C5COC5)CC4)n3)n2)c1`
100 to 1000
